Target: T1, NOD mouse SIRP-α D1 domain (mouse (NOD strain))
T1 chain: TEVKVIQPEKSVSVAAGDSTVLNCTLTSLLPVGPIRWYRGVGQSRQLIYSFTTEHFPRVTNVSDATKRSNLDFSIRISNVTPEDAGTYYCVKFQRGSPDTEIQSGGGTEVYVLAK
Test: SPR, ProteOn, antibody on chip
Recorded Endpoint: kon (M⁻¹ s⁻¹)
Note: unit M⁻¹ s⁻¹ is implicit; provide only the numeric part.

Inquiry: Tell me kon reported for AB21c (antibody, mouse IgG2a, V domains shown, Full-length mouse IgG2a) VH: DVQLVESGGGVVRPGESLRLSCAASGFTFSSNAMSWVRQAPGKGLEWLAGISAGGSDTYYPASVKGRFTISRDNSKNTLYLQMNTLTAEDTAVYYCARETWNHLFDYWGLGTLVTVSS VL: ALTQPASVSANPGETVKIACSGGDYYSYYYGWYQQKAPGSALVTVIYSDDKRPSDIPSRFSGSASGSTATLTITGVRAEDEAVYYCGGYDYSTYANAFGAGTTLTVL
Reply text: 749000

All values here come from patent US20210363269A1.
